experiment: collision cross section in nitrogen (drift tube, single-field); higher = larger gas-phase ion size; conditions: ion type: [M+Na]; ion source: ESI; ion mode: Positive;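 note: chemical standards at 10 µM analysed by drift tube IMS-QTOF MS in about 3.95 torr nitrogen, mean of duplicate injections differing ≤1%, mass error below 10 ppm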
Structures can show the parent of a compound that is named as a salt.
EXPERIMENTAL_ENDPOINT: collision cross section in nitrogen (Å²)
Just the number please, in Å², no unit attached.

Query (molecule): C=CCO/N=C(\CCC)C1C(=O)CC(C)(C)C(C(=O)OC)C1=O (configuration not stated) [Alloxydim sodium] ; field requested: collision cross section in nitrogen
179.4

# lookup: collision cross section in nitrogen of Cc1ccccc1NC(=N)NC(=N)N [1-(o-Tolyl)biguanide]
148.5

Item under review: CC1(C)CN=C(NN=C(C=Cc2ccc(C(F)(F)F)cc2)C=Cc2ccc(C(F)(F)F)cc2)NC1 [Hydramethylnon] . Reported collision cross section in nitrogen?
250.1

Value lookup for collision cross section in nitrogen; key = C=CC(=O)OCC(COC(=O)C=C)(COC(=O)C=C)COC(=O)C=C [Pentaerythritol tetraacrylate]
178.8

Bench note: what collision cross section in nitrogen did Clc1ccc(Nc2nnc(Cc3ccncc3)c3ccccc23)cc1 [Vatalanib dihydrochloride] show?
191.4

Could you share which collision cross section in nitrogen value was measured for CNC(=O)Oc1cccc2c1OC(C)(C)C2 [Carbofuran] ?
157.8

Bench note: what collision cross section in nitrogen did CCC(=C(c1ccc(O)cc1)c1ccc(OCCN(C)C)cc1)c1ccccc1 [4-Hydroxytamoxifen] show?
196.9

====

assay: collision cross section in nitrogen (drift tube, single-field); higher = larger gas-phase ion size; settings: ion type: [M+Na]; ion source: ESI; ion mode: Positive
Where a name gives a salt, the structure may show the parent alone.
EXPERIMENTAL_ENDPOINT: collision cross section in nitrogen (Å²)
Could you give me the number in Å²? Just the number is fine.

Using the record for CCNc1nc(NC(C)(C)C)nc(OC)n1 [Terbumeton] , report its collision cross section in nitrogen.
172.2

For the compound Cc1ccc(C2OC[C@@H]3OC(c4ccc(C)cc4)O[C@H]([C@H](O)CO)[C@@H]3O2)cc1 (some centres undefined) [Di-p-methylbenzylidenesorbitol] , what collision cross section in nitrogen is on record?
194.4

Requested field: collision cross section in nitrogen. Item: O=C1OC2(c3ccc(O)cc3Oc3cc(O)ccc32)c2ccccc21 [Fluorescein]
190.6

What collision cross section in nitrogen value was documented for this compound, C=CCc1cc(S(=O)(=O)c2ccc(O)c(CC=C)c2)ccc1O [4,4'-Sulfonylbis[2-(prop-2-en-1-yl)phenol]] ?
197.2

Consider the compound shown here: CS(=O)(=O)c1ccc([C@@H](CC2CCCC2)C(=O)Nc2cnccn2)cc1Cl What is its recorded collision cross section in nitrogen?
207.9

collision cross section in nitrogen for CCCCCC(=O)O[C@]1(C(C)=O)CC[C@H]2[C@@H]3CCC4=CC(=O)CC[C@]4(C)[C@H]3CC[C@@]21C [17-((1-Oxohexyl)oxy)pregn-4-ene-3,20-dione] ?
225.6

I'd like to know its collision cross section in nitrogen. The compound in question is CC(C)(C)NC[C@H](O)COc1nsnc1N1CCOCC1 [Timolol maleate salt]
172.7

// query collision cross section in nitrogen value for entry CCCCOC(=O)CCCCCCCC(=O)OCCCC [Dibutyl azelate]
191.2

Recorded collision cross section in nitrogen for O=C(Nc1ccccc1)c1ccccc1I [Benodanil] , please?
161.1

What does the data say about its collision cross section in nitrogen? Entry: O=c1n(CC2CO2)c(=O)n(CC2CO2)c(=O)n1CC1CO1 (centres undefined) [Tris(2,3-epoxypropyl)isocyanurate]
163.2

Any idea what its collision cross section in nitrogen is? The compound is COc1cc2c(cc1OC)[C@@]13CCN4CC5=CCO[C@H]6CC(=O)N2[C@H]1[C@H]6[C@H]5C[C@H]43 [Brucine]
204.6

Consider the compound shown here: CCN(CC)c1ccc(C(=O)c2ccccc2C(=O)O)c(O)c1 [2-[4-(Diethylamino)-2-hydroxybenzoyl]benzoic acid] What is its recorded collision cross section in nitrogen?
187.1

Give its collision cross section in nitrogen value. Item: CCC(C)N(C)C(=O)c1cc2ccccc2c(-c2ccccc2Cl)n1 (centres undefined)
192.8

Could you share which collision cross section in nitrogen value was measured for C(COCC1CO1)OCC1CO1 (centres undefined) [Ethylene glycol diglycidyl ether] ?
135.8

Report collision cross section in nitrogen for CNC(=O)Oc1ccccc1C1OCCO1 [Dioxacarb] please.
151.9

Look up collision cross section in nitrogen for this compound: Cc1ccc(N(CCO)CCO)cc1 [2,2'-[(4-Methylphenyl)imino]diethanol]
151

Fill in the blank: the reported collision cross section in nitrogen of CC(C)(O)c1ccc(CNC(=O)c2cccnc2Oc2ccc(F)cc2)cc1 is ____.
190.4

Bench note: what collision cross section in nitrogen did CCCSP(=O)(OCC)SCCC [Ethoprop] show?
169.5

Can you share its collision cross section in nitrogen? I mean this compound: CCCCOCCOC(=O)COc1ccc(Cl)cc1Cl [2,4-D-Butotyl]
177

What collision cross section in nitrogen value was documented for this compound, O=C(CCCCCCCCc1cccnc1)N1CCC(C=C(c2ccccc2)c2ccccc2)CC1 [Ro 23-7637] ?
242.7

Please give the measured collision cross section in nitrogen for this compound: COC(=O)c1ccccc1S(=O)(=O)NC(=O)Nc1nc(OC(F)F)cc(OC(F)F)n1 [Primisulfuron-methyl]
199.7

Which collision cross section in nitrogen value is on record for c1ccc(CNc2[nH]cnc3ncnc2-3)cc1 [N-Benzyl-1H-purin-6-amine] ?
162.8

May I ask what collision cross section in nitrogen has been recorded for CN(C)C(=O)Nc1cccc(C(F)(F)F)c1 [Fluometuron] ?
155

For COP(=S)(NC(C)C)Oc1ccc(C)cc1[N+](=O)[O-] (centres undefined) [Amiprofos-methyl] , what is its reported collision cross section in nitrogen?
172.4

I'd like to know its collision cross section in nitrogen. The compound in question is COC(=O)C(C)Oc1ccc(Oc2ncc(C(F)(F)F)cc2Cl)cc1 (centres undefined) [Haloxyfop-methyl]
185.6

Quick check: collision cross section in nitrogen of COc1cc(CNC(=O)CCCC/C=C/C(C)C)ccc1O [Capsaicin] ?
173

What value of measured collision cross section in nitrogen is listed for CCC(=O)OCC(COC(=O)CC)OC(=O)CC [Tripropionin] ?
161.2

# query: collision cross section in nitrogen of entry CCOP(=O)(NC(C)C)Oc1ccc(SC)c(C)c1 (centres undefined) [Fenamiphos]
178.1

# input compound: CCCCCCOC(=O)c1ccccc1C(=O)OCCCCCC [Dihexyl phthalate] ; wanted: its collision cross section in nitrogen
202.6
